Catalogue of IC50 readings, one per entry.
# systemUnderTest: IL-17A/A (Homo sapiens, UniProt Q16552)
# Sequence (Q16552 24-155): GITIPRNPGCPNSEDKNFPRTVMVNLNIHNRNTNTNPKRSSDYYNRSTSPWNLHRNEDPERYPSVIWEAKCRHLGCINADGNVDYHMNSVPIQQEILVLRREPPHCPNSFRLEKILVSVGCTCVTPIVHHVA
# assayMethodText: IL-17A/A HEK-Blue Cell Assay
# Type: cell-based
# conditionsUsed: HEK-Blue IL-17 reporter cells, IL-17A/A stimulation, 20 hours, SEAP readout; read-out: IL17 AA HEK-5 pIC50 (converted)

Some entries whose results are on file:
[[record]]
compound = "CCOC(C)C(=O)N[C@@H](C(=O)N1CCN(C)CC1)[C@@H](C)c1ccc(NC(=O)[C@@H](NC(=O)c2ccnn2CC)C(C2CC2)C2CC2)c(F)c1 (single isomer, unassigned) [Compound 328]"
result = "< 0.01 µM"

[[record]]
compound = "CCn1nccc1C(=O)N[C@H](C(=O)Nc1ccc([C@H](C)[C@@H](NC(=O)[C@H](C)N(C)C2=NCCO2)C(=O)N2CCN(C)[C@H](C)C2)cc1F)C(C1CC1)C1CC1 [Compound 296]"
result = "< 0.01 µM"

[[record]]
compound = "COCC(=O)N[C@@H](C(=O)N1CCN(C)[C@H](C)C1)[C@@H](C)c1ccc(NC(=O)[C@@H](NC(=O)c2nonc2C)C(C2CC2)C2CC2)c(F)c1 [Compound 348]"
result = "< 0.01 µM"


Record CCOC(=O)N1CC[C@H]1C(=O)N[C@@H](C(=O)N1CCN(C)[C@H](C)C1)[C@@H](C)c1ccc(NC(=O)[C@@H](NC(=O)C2(F)CC2)C(C2CC2)C2CC2)c(F)c1 [Compound 275] ; system IL-17A/A (Homo sapiens, UniProt Q16552); IC50 = < 0.01 µM

Record CCOC(=O)N[C@@H](CF)C(=O)N[C@@H](C(=O)N1CCN(C)CC1)[C@@H](C)c1ccc(NC(=O)[C@@H](NC(=O)C2(F)CC2)C(C2CC2)C2CC2)c(F)c1 [Compound 359] ; system IL-17A/A (Homo sapiens, UniProt Q16552); IC50 = < 0.01 µM

Record CCC(=O)NC(C(=O)N1CCN(C)CC1)C(c1ccc(NC(=O)[C@@H](NC(=O)c2ccnn2CC)C(C2CC2)C2CC2)c(F)c1)C(F)(F)F (single isomer, unassigned) [Compound 352] ; system IL-17A/A (Homo sapiens, UniProt Q16552); IC50 = 0.1 to 10 µM

Record CCC(=O)N[C@@H](C(=O)N1CC[C@H](N(C)C)C1)[C@@H](C)c1ccc(NC(=O)[C@@H](NC(=O)c2ccnn2C(C)C)C(C2CC2)C2CC2)c(F)c1 [Compound 265] ; system IL-17A/A (Homo sapiens, UniProt Q16552); IC50 = < 0.01 µM

Record CCn1nccc1C(=O)N[C@H](C(=O)Nc1ccc([C@H](C)[C@@H](NC(=O)C(C)CC(F)(F)F)C(=O)N2CCN(C)[C@H](C)C2)cc1F)C(C1CC1)C1CC1 (single isomer, unassigned) [Compound 324] ; system IL-17A/A (Homo sapiens, UniProt Q16552); IC50 = < 0.01 µM

Record CCC(=O)N[C@@H](C(=O)N1C[C@@H](C)N(C)C[C@H]1C)[C@@H](C)c1ccc(NC(=O)[C@@H](NC(=O)c2ccnn2CC)C(C2CC2)C2CC2)c(F)c1 [Compound 212] ; system IL-17A/A (Homo sapiens, UniProt Q16552); IC50 = < 0.01 µM

Record CCC(=O)N[C@@H](C(=O)N1CC[C@H](N(C)C)C1)[C@@H](C)c1ccc(NC(=O)[C@@H](NC(=O)c2ccnn2CC)C(C2CC2)C2CC2)c(F)c1 [Compound 240] ; system IL-17A/A (Homo sapiens, UniProt Q16552); IC50 = 0.01 to 0.1 µM
